test system: Pseudomonas 3 (Pseudomonas mandelii); experiment: relative growth (AUC of 72 h growth curve relative to DMSO control, dAUC) (ratio); higher = more growth (less inhibition), active = hit call of the paper; conditions: 20 µM
observable: relative growth

Exercise: Return relative growth measured with Pseudomonas 3 (Pseudomonas mandelii) given this molecule: CCOP(=S)(OCC)Oc1nc(Cl)c(Cl)cc1Cl
Key: 1.05 (inactive)

Exercise: Return relative growth measured with Pseudomonas 3 (Pseudomonas mandelii) given this molecule: N#Cc1c[nH]cc1-c1cccc2c1OC(F)(F)O2
Key: 1.03 (inactive)

Exercise: Return relative growth measured with Pseudomonas 3 (Pseudomonas mandelii) given this molecule: N#CC(CCc1ccc(Cl)cc1)(Cn1cncn1)c1ccccc1 (configuration not stated)
Key: 0.992 (inactive)

Exercise: Return relative growth measured with Pseudomonas 3 (Pseudomonas mandelii) given this molecule: CCOC(=O)CC(SP(=S)(OC)OC)C(=O)OCC (configuration not stated)
Key: 1.05 (inactive)

Exercise: Return relative growth measured with Pseudomonas 3 (Pseudomonas mandelii) given this molecule: CCCC(Cn1cncn1)c1ccc(Cl)cc1Cl (configuration not stated)
Key: 1.02 (inactive)

Exercise: Return relative growth measured with Pseudomonas 3 (Pseudomonas mandelii) given this molecule: O=C1c2ccccc2C(=O)N1SC(Cl)(Cl)Cl
Key: 1.01 (inactive)

Exercise: Return relative growth measured with Pseudomonas 3 (Pseudomonas mandelii) given this molecule: Cc1cccc2sc3nncn3c12
Key: 1.03 (inactive)

Exercise: Return relative growth measured with Pseudomonas 3 (Pseudomonas mandelii) given this molecule: CC1(C)C(C(=O)OC(C#N)c2cccc(Oc3ccccc3)c2)C1(C)C (configuration not stated)
Key: 1.04 (inactive)

Exercise: Return relative growth measured with Pseudomonas 3 (Pseudomonas mandelii) given this molecule: CC1(C(=O)Nc2ccc(O)c(Cl)c2Cl)CCCCC1
Key: 1.05 (inactive)

Exercise: Return relative growth measured with Pseudomonas 3 (Pseudomonas mandelii) given this molecule: COc1ccc(C(=CC(=O)N2CCOCC2)c2ccc(Cl)cc2)cc1OC (mixture of isomers)
Key: 1.03 (inactive)

Exercise: Return relative growth measured with Pseudomonas 3 (Pseudomonas mandelii) given this molecule: O=C(NC(=O)c1c(F)cccc1F)Nc1ccc(Cl)cc1
Key: 1.04 (inactive)

Exercise: Return relative growth measured with Pseudomonas 3 (Pseudomonas mandelii) given this molecule: Fc1ccc([C@]2(Cn3cncn3)O[C@H]2c2ccccc2Cl)cc1 (racemic)
Key: 1.04 (inactive)
